- Measured on: JAK3 (Homo sapiens, UniProt P52333)
- Sequence (P52333 795-1124 limits assumed): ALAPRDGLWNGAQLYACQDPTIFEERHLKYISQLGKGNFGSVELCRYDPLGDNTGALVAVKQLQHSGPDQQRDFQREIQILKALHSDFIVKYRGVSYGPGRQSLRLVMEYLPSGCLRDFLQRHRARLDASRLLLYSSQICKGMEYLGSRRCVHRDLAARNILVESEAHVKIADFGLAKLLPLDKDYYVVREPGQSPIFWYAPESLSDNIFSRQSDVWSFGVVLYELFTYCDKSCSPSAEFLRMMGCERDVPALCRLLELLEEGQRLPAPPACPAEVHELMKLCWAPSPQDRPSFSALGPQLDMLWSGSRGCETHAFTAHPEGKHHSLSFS
- Assay text: JAK3 kinase ADP-Glo assay (Example 60)
Assay endpoint: IC50 (nM)

CCc1cc(O)c(F)cc1-c1ccc2c(-c3nc4c([nH]3)CN(Cc3cnn(C)c3)C4)n[nH]c2c1	0.379

[I] CCOC(=O)N1Cc2nc(-c3n[nH]c4cc(-c5cc(F)c(O)cc5CC)ccc34)[nH]c2C1
[II] CCc1cc(O)c(F)cc1-c1ccc2c(-c3nc4c([nH]3)CN(C(=O)N3CCC(C#N)C3)C4)n[nH]c2c1 (stereo not shown)
[III] CCc1cc(O)c(F)cc1-c1ccc2c(-c3nc4c([nH]3)CN(C(=O)NCCC#N)C4)n[nH]c2c1
Query string: Sort the 3 compounds by IC50; largest first, smallest last. Would you mind listing the labels in the order asked for?
Result string: III, I, II

[a] CCc1cc(O)c(F)cc1-c1cnc2c(-c3nc4c([nH]3)CN(C(=O)C3CC3)C4)n[nH]c2c1
[b] CCc1cc(O)c(F)cc1-c1ccc2c(-c3nc4c([nH]3)CN(C(=O)NC3CCOC3)C4)n[nH]c2c1 (stereo not shown)
[c] CCc1cc(O)c(F)cc1-c1ccc2c(-c3nc4c([nH]3)CN(S(=O)(=O)C3CC3)C4)n[nH]c2c1
[d] CCc1cc(O)c(F)cc1-c1ccc2c(-c3nc4c([nH]3)CN(C(=O)CC#N)C4)n[nH]c2c1
Query string: Give the ascending ranking of the items by reported IC50. Sort and list the labels as requested.
Result string: b, c, a, d
(b: 0.406 nM, c: 0.948 nM, a: 1.39 nM, d: 2.71 nM)

[a] CCc1cc(O)c(F)cc1-c1ccc2c(-c3nc4c([nH]3)CN(C(=O)N3CC(O)C3)C4)n[nH]c2c1
[b] CCNC(=O)N1Cc2nc(-c3n[nH]c4cc(-c5cc(F)c(O)cc5CC)ccc34)[nH]c2C1
Query string: Of the two listed items, a and b , which carries the larger IC50 figure? # reply format: chosen label
Result string: b

[P] CCC(=O)N1Cc2nc(-c3n[nH]c4cc(-c5cc(F)c(O)cc5CC)ccc34)[nH]c2C1
[Q] CCc1cc(O)c(F)cc1-c1ccc2c(-c3nc4c([nH]3)CN(C(=O)NC)C4)n[nH]c2c1
[R] CCc1cc(O)c(F)cc1-c1ccc2c(-c3nc4c([nH]3)CN(C(=O)NC3CC3)C4)n[nH]c2c1
Query string: Order by IC50, ascending. Output spec: labels arranged per the requested ranking.
Result string: P, Q, R
(P: 0.441 nM, Q: 0.709 nM, R: 1.29 nM)

###

- Measured on: JAK1 (Homo sapiens, UniProt P23458)
- Sequence (P23458 850-1154 limits assumed): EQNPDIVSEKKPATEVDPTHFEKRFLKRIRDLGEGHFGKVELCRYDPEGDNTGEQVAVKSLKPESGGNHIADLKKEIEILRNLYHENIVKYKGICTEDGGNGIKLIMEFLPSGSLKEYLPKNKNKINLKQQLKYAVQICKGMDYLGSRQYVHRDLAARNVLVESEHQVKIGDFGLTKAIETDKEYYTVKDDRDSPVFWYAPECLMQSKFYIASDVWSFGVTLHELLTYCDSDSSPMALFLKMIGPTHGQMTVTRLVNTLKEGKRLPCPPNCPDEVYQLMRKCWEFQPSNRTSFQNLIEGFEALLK
- Assay text: JAK1 kinase ADP-Glo assay (Example 60)
pIC50: −log10 of the molar value.
Assay endpoint: pIC50

CCc1cc(O)c(F)cc1-c1ccc2c(-c3nc4c([nH]3)CN(S(=O)(=O)C3CCC3)C4)n[nH]c2c1	8.86

[P] CCc1cc(O)c(F)cc1-c1ccc2c(-c3nc4c([nH]3)CN(C3CCCC3)C4)n[nH]c2c1
[Q] CCc1cc(O)c(F)cc1-c1ccc2c(-c3nc4c([nH]3)CN(C(=O)NC3CCOC3)C4)n[nH]c2c1 (stereo not shown)
Query string: Task for the reader: decide whether P or Q has the larger pIC50. Please indicate the selected item by its label.
Result string: Q
(Q: 9.84, P: 9.61)

[1] CCc1cc(O)c(F)cc1-c1ccc2c(-c3nc4c([nH]3)CN(C(=O)N(C)C)C4)n[nH]c2c1
[2] CCc1cc(O)c(F)cc1-c1ccc2c(-c3nc4c([nH]3)CN(C(=O)C(C)C)C4)n[nH]c2c1
[3] CCc1cc(O)c(F)cc1-c1ccc2c(-c3nc4c([nH]3)CN(C(=O)CC(C)C)C4)n[nH]c2c1
[4] CCc1cc(O)c(F)cc1-c1ccc2c(-c3nc4c([nH]3)CN(C(=O)NC3CCC3)C4)n[nH]c2c1
[5] CCc1cc(O)c(F)cc1-c1ccc2c(-c3nc4c([nH]3)CN(C(=O)N3CCN(C)CC3)C4)n[nH]c2c1
Query string: Arrange these 5 molecules in increasing order of pIC50. List each label, following the requested order.
Result string: 4, 3, 2, 1, 5

[P] CCc1cc(O)c(F)cc1-c1ccc2c(-c3nc4c([nH]3)CN(C3CCOCC3)C4)n[nH]c2c1
[Q] CCc1cc(O)c(F)cc1-c1ccc2c(-c3nc4c([nH]3)CN(Cc3cnn(C)c3)C4)n[nH]c2c1
Query string: Hi there! Just curious which has the higher pIC50 between P and Q . Refer to your chosen entry by its label in the reply.
Result string: Q
(Q: 9.89, P: 9.65)

[P] CCc1cc(O)c(F)cc1-c1ccc2c(-c3nc4c([nH]3)CN(C(=O)c3cccnn3)C4)n[nH]c2c1
[Q] CCc1cc(O)c(F)cc1-c1ccc2c(-c3nc4c([nH]3)CN(C(=O)CC#N)C4)n[nH]c2c1
Query string: Would you kindly point out which of P and Q has the smaller pIC50 figure? Your answer should be the label of the entry you select.
Result string: Q
(Q: 9.15, P: 9.71)
